test.description: Average % total dose in urine samples of dogs (Table II)
Assay type: in vivo, dog
protocol.conditions: 15 min post injection, mean, 15 min
Exercise: state measured Average % Total Dose in Urine Samples for each of the compounds provided.
I'd appreciate it if you wrote the number followed by its unit.

Below: 3 compounds and their reported Average % Total Dose in Urine Samples.
{"compound": "O=C(O)C1C[S][Tc-]23(=[O])[S]CC[N]2C(=O)C(=O)[N]13 (single isomer, unassigned) [XXXIB]", "Average % Total Dose in Urine Samples": "42.13 % total dose"}
{"compound": "O=C(O)C1C[S][Tc-]23(=[O])[S]CC(=O)[N]2CC(=O)[N]13 (single isomer, unassigned) [XVIA]", "Average % Total Dose in Urine Samples": "48.11 % total dose"}
{"compound": "O=C(O)C1C[S][Tc-]23(=[O])[S]CC[N]2C(=O)C(=O)[N]13 (single isomer, unassigned) [XXXIA]", "Average % Total Dose in Urine Samples": "18.25 % total dose"}

Looking for the measured Average % Total Dose in Urine Samples of O=C(O)C1C[S][Tc-]23(=[O])[S]CC(=O)[N]2CC(=O)[N]13 (single isomer, unassigned) [XVIB] , can you help?
44.29 % total dose

====

test.description: Average % total dose in urine samples of dogs (Table II)
Assay type: in vivo, dog
protocol.conditions: 5 min post injection, mean, 5 min
reported.property: Average % Total Dose in Urine Samples (% total dose)
Give bare numbers, in % total dose.

Below: 3 compounds and their reported Average % Total Dose in Urine Samples.
{"compound": "O=C(O)C1C[S][Tc-]23(=[O])[S]CC[N]2C(=O)C(=O)[N]13 (single isomer, unassigned) [XXXIB]", "reading": 13.56}
{"compound": "O=C(O)C1C[S][Tc-]23(=[O])[S]CC(=O)[N]2CC(=O)[N]13 (single isomer, unassigned) [XVIA]", "reading": 8.67}
{"compound": "O=C(O)C1C[S][Tc-]23(=[O])[S]CC[N]2C(=O)C(=O)[N]13 (single isomer, unassigned) [XXXIA]", "reading": 3.56}

Looking for the measured Average % Total Dose in Urine Samples of O=C(O)C1C[S][Tc-]23(=[O])[S]CC(=O)[N]2CC(=O)[N]13 (single isomer, unassigned) [XVIB] , can you help?
13.98
